target: PLA2G7 (Mus musculus, UniProt Q60963); construct: Proteomes (mouse brain membrane fraction or cell lysates); from tissue; host or cells: mouse brain membrane fraction (or cell lysates, not specified); experiment: In vitro competitive activity-based protein profiling (gel-based, FP-Rh or HT-01 probe); format: biochemical; details: 10 μM inhibitor; read-out: % Inhibition at 10 μM, D = PLA2G7
Sequence (Q60963 22-440): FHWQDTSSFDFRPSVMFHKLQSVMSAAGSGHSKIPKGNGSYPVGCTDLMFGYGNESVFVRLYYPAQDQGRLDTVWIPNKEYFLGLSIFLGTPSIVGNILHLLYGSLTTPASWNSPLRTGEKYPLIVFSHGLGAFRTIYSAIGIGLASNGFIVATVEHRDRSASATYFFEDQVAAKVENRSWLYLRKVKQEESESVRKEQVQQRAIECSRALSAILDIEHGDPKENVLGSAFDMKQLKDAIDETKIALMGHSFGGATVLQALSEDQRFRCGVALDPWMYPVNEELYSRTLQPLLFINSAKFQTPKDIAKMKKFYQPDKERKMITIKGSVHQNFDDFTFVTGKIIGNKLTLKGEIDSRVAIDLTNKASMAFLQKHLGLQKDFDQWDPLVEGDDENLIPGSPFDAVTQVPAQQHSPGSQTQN
reportedProperty: inhibition at 10 µM

>>> testvalue("Cc1cc(N2CCN(C(=O)n3cc(-c4ccccc4)cn3)CC2)c2ccccc2n1")
"> 75%"
>>> testvalue("CN(Cc1cccc(-c2ccncc2)c1)C(=O)n1cc(C(F)(F)F)cn1")
"< 25%"
>>> testvalue("N#Cc1cnn(C(=O)N2CCN(Cc3ccc(Oc4ccccc4)cc3)CC2)c1")
"> 75%"
>>> testvalue("O=C(Nc1ccc2ccccc2c1)n1cccn1")
"< 25%"
>>> testvalue("Cc1cnn(C(=O)N2CCCN(Cc3ccccc3)CC2)c1")
"< 25%"
>>> testvalue("COc1cc(-c2ccccc2)ccc1CN1CCN(C(=O)n2cc(Cl)cn2)CC1")
"> 75%"
>>> testvalue("Cc1cnn(C(=O)N2CCN(Cc3ccc(-c4ccccc4)cc3)CC2)c1")
"> 75%"
>>> testvalue("N#Cc1cnn(C(=O)N2CCCN(C(=O)c3ccccc3)CC2)c1")
"> 75%"

# input Answer with the recorded inhibition at 10 µM of `N#Cc1cnn(C(=O)NCCCCc2ccccc2)c1` only.
# output < 25%
